# melting point >= 90 °C gives y, anything below gives n

Quick check: does `CCCOCCO` have melting point greater than or equal to 90 °C?
n

Quick check: does `CC(=O)c1c(C)c(C)c(C)c(C)c1C` have melting point greater than or equal to 90 °C?
n

Quick check: does `CCCCCCCCCC(C)=O` have melting point greater than or equal to 90 °C?
n

Quick check: does Nc1ccccc1[N+](=O)[O-] [o-nitroaniline] have melting point greater than or equal to 90 °C?
n

Quick check: does CC(C)(C)NCC(O)COc1cccc2c1C[C@H](O)[C@H](O)C2 (stereo not given in full) [nadolol] have melting point greater than or equal to 90 °C?
y

Quick check: does `O=S(=O)(Nc1ccccc1Cl)c1ccccc1` have melting point greater than or equal to 90 °C?
y

Quick check: does `C[C@@H](O)[C@@H](C)O` have melting point greater than or equal to 90 °C?
n

Quick check: does CP(=O)(O)CC[C@@H](N)C(=O)O [2-Amino-4-(Hydroxymethyl-Phosphinyl)Butanoic Acid] have melting point greater than or equal to 90 °C?
y

Quick check: does `ClC1CCCCC1` have melting point greater than or equal to 90 °C?
n

Quick check: does `Cc1n[nH]c(=O)[nH]c1=O` have melting point greater than or equal to 90 °C?
y
